# System: Human peripheral blood mononuclear cells (PBMC)
# protocol: Cytokine induction in human cells (PBMC), cytokines by ELISA / multiplex bead assay
# Type: cell-based
# experimental context: human PBMC, 21-24 hours; lowest concentration giving cytokine level at least 2x negative control; multiplex bead assay; read-out: MEC to Induce Cytokine: IFN-gamma
I'd appreciate it if you could supply minimal effective concentration values for the items below.

What minimal effective concentration value was documented for this molecule, CCC[C@@H](n1cnc2c(N)nc3ccccc3c21)C(C)(C)O ?
≤ 0.41 µM

What minimal effective concentration value was documented for this molecule, C[C@@H](C1CCCCC1)n1cnc2c(N)nc3ccccc3c21 ?
> 100 µM

What minimal effective concentration value was documented for this molecule, CCC[C@H](n1cnc2c(N)nc3ccccc3c21)C(C)(C)O ?
> 30 µM

What minimal effective concentration value was documented for this molecule, CC(C)C[C@H](n1cnc2c(N)nc3ccccc3c21)C(C)(C)O ?
> 100 µM

What minimal effective concentration value was documented for this molecule, C[C@H](n1cnc2c(N)nc3ccccc3c21)C(C)(C)C ?
> 100 µM

* * *

# Test system: Human peripheral blood mononuclear cells (PBMC)
# protocol: Cytokine induction in human cells (PBMC), cytokines by ELISA / multiplex bead assay
# Type: cell-based
# experimental context: human PBMC, 21-24 hours; lowest concentration giving cytokine level at least 2x negative control; multiplex bead assay; read-out: MEC to Induce Cytokine: IFN-gamma
I'd appreciate it if you could supply minimal effective concentration values for the items below.

What minimal effective concentration value was documented for this compound, CC[C@H](n1cnc2c(N)nc3ccccc3c21)C(C)(C)O ?
> 100 µM

What minimal effective concentration value was documented for this compound, C[C@H](n1cnc2c(N)nc3ccccc3c21)C(C)(C)F ?
> 100 µM

What minimal effective concentration value was documented for this compound, CCCC[C@H](n1cnc2c(N)nc3ccccc3c21)C(C)(C)O ?
> 100 µM

What minimal effective concentration value was documented for this compound, CCCC[C@H](C(C)C)n1cnc2c(N)nc3ccccc3c21 ?
> 30 µM

What minimal effective concentration value was documented for this compound, C[C@H](n1cnc2c(N)nc3ccccc3c21)C(C)(C)O ?
> 30 µM

The reported measurements were obtained from patent US20220177471A1.
